target: native soluble IL-6R in human plasma (human, UniProt P08887); assay: ELISA 1, periplasmic extract; competitor IL-6; human plasma
Value Kind: OD450 ratio sample/blank
Respond with the number and no other words.

OD450 ratio sample/blank recorded for this binder, IL6RPMP103B2 (VHH) VHH: EVQLVESGGGLVQPGGSLRLSCAASGSTFSINMMAWYCQAPGKQRELVASISSGGGINYADSVKGRFTISRDYAENSVDLQMNSLKPEDTAVYYCNARGTYLNGDHYSTNYNSWGQGTQVTVSS , is 1.76

Short answer for IL6RPMP107B4 (VHH) VHH: EVQLVESGGGLVQAGGSLRLSCVASGLRLNMHRMGWFRQAPGKEREFVARIFTDDGDSYYADSVQGRFTISGDNAKNTVYLQMNSLKPEDTGVYFCAAGYMSGAESPIGYDNWGQGTQVTVSS : OD450 ratio sample/blank was 1.2

Lab note: measured OD450 ratio sample/blank of IL6RPMP108D1 (VHH) VHH: EVQLVESGGGLVQAGGSLRLSCTASGRTFSDYDMGWFRQAPGKERECVAVIDTNGDNTLTVGSVKGRFAISRDNAKNTVYLQMNSLLPEDTAVYTCAAGAWSSLRSTAANYWGQGTKVTVSS was 0.87

Looking up IL6RPMP120B7 (VHH) VHH: EVQLVESGGGLVQAGGSLSLSCATSGRTISDDTMAWFRQAPGKEREFVATITFSGARTHYSDSVRDRFTISRDNAKNTVYLQMNSLKSEDTAVYYCAASTKYYSSTYNYIHPAFYDIWGQGTQVTVSS , I found its OD450 ratio sample/blank recorded as 0.714

Value of measured OD450 ratio sample/blank for the entry IL6RPMP101F2 (VHH) VHH: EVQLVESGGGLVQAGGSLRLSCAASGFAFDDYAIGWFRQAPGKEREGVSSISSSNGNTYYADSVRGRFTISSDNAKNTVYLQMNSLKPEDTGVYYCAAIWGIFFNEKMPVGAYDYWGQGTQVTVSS : 0.569

Kindly note the recorded OD450 ratio sample/blank for IL6RPMP101G3 (VHH) VHH: EVQLVESGGGLVQAGGSLRLSCTASGRTFSDYDMGWFRQAPGKERECVAIIDTNGDNTLIVGSVKGRFAISSDNAKNTVYLQMNSLLPEDTAVYTCAAGVWSSLRHTAANYWGQGTQVTVSS , which is 1.08

Entry under test: IL6RPMP107E4 (VHH) VHH: EVQLVESGGGLVQAGGSLRLSCAASGSIDRINAMGWYRQAPGKQRDFLAVITDGDKTLYADSVKGRFTISNDNAKNTVYLQMNSLKPEDTAVYYCNAYQAGWGDYWGQGTQVTVSS . Its OD450 ratio sample/blank was 0.592

Recorded OD450 ratio sample/blank (binder IL6RPMP101B2 (VHH) VHH: EVQLVESGGGLVQAGGSLRLSCTASGRTFTDYDMGWFRQAPGKEREVVAIIDTNGDNTLTVGSVKGRFAISSDNAKNTVYLQMNSLLPEDTAVYTCAAGAWSALRRSVANYWGQGTQVTVSS ): 1.09
